Tested on: SK-MEL-2
Assay: NCI tumour cell line growth inhibition, 48 h
Activity calls are given as the source filed them. Rule as the data show it: active = GI50 up to about 1.1 µM and inactive = higher.
// allowed return values: T = active, F = inactive

Recorded results for 3 compounds are shown here.
{"columns": ["compound", "class.label"],
 "data": [
  ["O=C(O)CCSc1ncnc2[nH]cnc12", "F"],
  ["COC(=O)C12Oc3ccc(-c4ccc5c(c4O)C(O)=C4C(=O)CC(C)C(O)C4(C(=O)OC)O5)c(O)c3C(O)=C1C(=O)CC(C)C2O (stereo not drawn)", "T"],
  ["COc1ccc(Oc2cccc(C3C4C(=O)N(c5ccc(C)c(Cl)c5)C(=O)C4ON3C(C(N)=O)c3ccccc3)c2)cc1 (stereo not drawn)", "F"]
]}

# lookup: test call for O=C1C(Cl)=C(Cl)C(=O)N1c1ccc(F)cc1 [FLUOROIMIDE]
F

# lookup: test call for COc1ccc(Nc2nc3cc(C(F)(F)F)ccc3nc2-c2ccccc2)cc1OC
F

# lookup: test call for COC(=O)N/N=C(\Cc1ccccc1)CN(C)C
F

# lookup: test call for O=c1c(C(c2ccc(/C=C/c3ccccc3)cc2)c2c(O)oc3cc(O)ccc3c2=O)c(O)oc2cc(O)ccc12
F

----------
System: SF-268
Test: NCI tumour cell line growth inhibition, 48 h
Activity calls are given as the source filed them. Cut-off read from the data, not from the text of the source: active = GI50 up to about 1.1 µM and inactive = higher.
measurement.kind: GI50

Here are 5 molecules together with their reported answers.
{"columns": ["molecule", "experimental.result"],
 "data": [
  ["CN1CCN(C2=C(Cl)C(=O)c3c(O)ccc(O)c3C2=O)CC1", "1.85 µM (inactive)"],
  ["N#CC1(CCCCl)CCCCC1", "> 100 µM (inactive)"],
  ["Cc1[nH]c2ncn(/N=C/c3ccccc3)c(=N)c2c1Cc1ccccc1", "> 100 µM (inactive)"],
  ["CC(C)S(=O)(=O)n1c(N)nc2ccc(/C(=N/O)c3ccccc3)cc21 [ENVIROXIME]", "27.7 µM (inactive)"],
  ["CCCCCC#COC1CC(C)CC[C@@H]1C(C)C (stereo partly drawn)", "> 100 µM (inactive)"]
]}

# get_value(readout= GI50, system= SF-268) for COc1ccc(O)c2c1C(=O)CCCC2=O
> 100 µM (inactive)

# get_value(readout= GI50, system= SF-268) for Cc1cccc2c(=O)c3cccc([C@H](C)C(=O)O)c3oc12
> 100 µM (inactive)

# get_value(readout= GI50, system= SF-268) for CCOP(=O)(OCC)C(C(=O)OC)C(=O)C(=O)Nc1ccc(Cl)cc1Cl (stereo not drawn)
> 100 µM (inactive)

----------
Tested on: PC-3
Assay: NCI tumour cell line growth inhibition, 48 h
The source made the active and inactive calls. Rule as the data show it: active = GI50 up to about 1.1 µM and inactive = higher.
measurement.kind: GI50

Here are 4 molecules together with their reported answers.
{"columns": ["molecule", "GI50"],
 "data": [
  ["N/C(=N\\NC(=O)c1nc2ccccc2s1)c1ccccn1", "9.31 µM (inactive)"],
  ["CC(=O)O[C@H]1CC[C@@]2(C)C(=CC[C@@H]3[C@@H]2CC[C@]2(C)c4c(cc(C#N)c(=N)n4C(C)=O)C[C@@H]32)C1", "21.5 µM (inactive)"],
  ["CN(C)CCNC(=O)c1cccc2nc3cccc(F)c3nc12", "1.38 µM (inactive)"],
  ["Oc1ccccc1CNCc1ccccc1O", "> 100 µM (inactive)"]
]}

Attention now turns to another entry.
Field request: GI50 | item: CCC1=CC(OCc2ccccc2)C(CCN(Cc2ccccc2)C(=O)OCc2ccccc2)C1 (stereo not given)
14.3 µM (inactive)

The origin of these recorded values is ChEMBL document CHEMBL1201862.
